Target: S. aureus GyrB ATPase (Staphylococcus aureus)
Sequence (P0A0K8 whole entry): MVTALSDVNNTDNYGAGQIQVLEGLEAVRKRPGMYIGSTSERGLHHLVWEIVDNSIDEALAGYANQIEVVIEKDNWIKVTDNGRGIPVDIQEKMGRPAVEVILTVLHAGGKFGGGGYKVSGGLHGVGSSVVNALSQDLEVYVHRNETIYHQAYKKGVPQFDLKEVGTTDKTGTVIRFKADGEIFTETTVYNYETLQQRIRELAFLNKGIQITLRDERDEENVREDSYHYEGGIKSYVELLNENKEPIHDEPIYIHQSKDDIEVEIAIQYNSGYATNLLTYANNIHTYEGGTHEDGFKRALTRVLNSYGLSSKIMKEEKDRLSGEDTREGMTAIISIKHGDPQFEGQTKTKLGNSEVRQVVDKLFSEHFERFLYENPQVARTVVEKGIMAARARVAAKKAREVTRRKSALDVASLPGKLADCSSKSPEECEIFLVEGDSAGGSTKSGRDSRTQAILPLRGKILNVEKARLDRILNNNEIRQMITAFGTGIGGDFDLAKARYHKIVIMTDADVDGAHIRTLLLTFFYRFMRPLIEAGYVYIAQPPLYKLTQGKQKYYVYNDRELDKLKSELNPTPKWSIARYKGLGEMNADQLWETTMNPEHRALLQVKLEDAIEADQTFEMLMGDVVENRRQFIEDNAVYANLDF
Sequence (P0AES4 whole entry, further chain): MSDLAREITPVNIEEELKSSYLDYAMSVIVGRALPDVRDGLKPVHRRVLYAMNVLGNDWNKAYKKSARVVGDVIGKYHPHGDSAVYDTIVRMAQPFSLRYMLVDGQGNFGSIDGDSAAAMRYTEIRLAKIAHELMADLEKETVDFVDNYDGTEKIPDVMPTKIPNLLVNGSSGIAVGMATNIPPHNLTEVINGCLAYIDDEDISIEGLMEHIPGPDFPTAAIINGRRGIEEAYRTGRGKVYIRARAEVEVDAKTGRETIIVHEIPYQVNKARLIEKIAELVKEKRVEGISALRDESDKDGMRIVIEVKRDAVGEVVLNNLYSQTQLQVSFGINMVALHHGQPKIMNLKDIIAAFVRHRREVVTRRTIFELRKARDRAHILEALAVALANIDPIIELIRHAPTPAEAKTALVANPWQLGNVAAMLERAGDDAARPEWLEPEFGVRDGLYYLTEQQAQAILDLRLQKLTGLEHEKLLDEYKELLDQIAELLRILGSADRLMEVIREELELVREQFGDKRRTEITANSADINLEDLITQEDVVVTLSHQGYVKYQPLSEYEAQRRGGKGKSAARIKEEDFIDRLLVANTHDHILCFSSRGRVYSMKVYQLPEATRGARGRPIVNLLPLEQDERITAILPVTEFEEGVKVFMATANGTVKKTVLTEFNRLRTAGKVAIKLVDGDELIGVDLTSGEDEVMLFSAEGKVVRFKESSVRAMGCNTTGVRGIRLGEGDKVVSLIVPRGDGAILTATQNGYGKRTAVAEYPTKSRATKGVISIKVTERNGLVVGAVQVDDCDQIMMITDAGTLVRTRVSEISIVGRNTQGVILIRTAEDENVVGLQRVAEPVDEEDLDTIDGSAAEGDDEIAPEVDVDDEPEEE
Assay: biochemical
Settings: compound at 1 μM; one value per test if tested more than once; read-out: % Inhibition of S. aureus GyrB ATPase
reported_property: inhibition at 1 µM
Please give the number followed by its unit.

Example entries and their recorded answers appear below.
CCNC(=O)Nc1cc(-c2nc(-c3ccccc3)cs2)c(-c2cc3c4c(c2)c(=O)c(C(=O)O)cn4CCO3)cn1 [Example 17] : 103%
CCNC(=O)Nc1cc(-c2nc(C(F)(F)F)cs2)c(-c2ccc3c(c2)c(=O)c(C(=O)O)cn3C[C@@H]2CCN(CCN3CCOCC3)C2)cn1 [Example 237] : 103%
CCNC(=O)Nc1cc(-c2nc(C(F)(F)F)cs2)c(-c2ccc3c(=O)c(C(=O)NC)cn(Cc4ccccc4)c3c2)cn1 [Example 353] : 99%

Prompt line: Supply inhibition at 1 µM value. Item: CC(C)NC(=O)Nc1cc(-c2nc(C(F)(F)F)cs2)c(-c2ccc3c(c2)c(=O)c(C(=O)O)cn3CCN(C)C)cn1 [Example 189]
Response line: 100%

Prompt line: Query inhibition at 1 µM for CCNC(=O)Nc1cc(-c2nc(C(F)(F)F)cs2)c(-c2ccc3c(c2)c(=O)c(C(=O)O)cn3[C@H](C)CO)cn1 [Example 72]
Response line: 103%

Prompt line: Give inhibition at 1 µM for CCCn1cc(C(=O)NCCN2CCOCC2)c(=O)c2ccc(-c3cnc(NC(=O)NCC)cc3-c3nc(C(F)(F)F)cs3)cc21 [Example 351]
Response line: 95%
